- test: Quantitative highthroughput screen to assess conditional lethalithy of SEM cells grown in RPMI1640 with unreated serum (RPMI+s) (AID 1963883); also: nearly all actives have a fitted effect of over 35% in size
- protocol-conditions: SEM B-ALL cells, CellTiter-Glo viability, 48 h; series mostly up to 45.8 µM
Inconclusive results are not listed. The source made the active and inactive calls. Calls follow the shape of the dose curve; as a rule, active = well fitted cell-killing curve with a large enough effect; inconclusive = small, poorly fitted or top-dose-only effect, or effect the other way; inactive = no such curve, though single readings can be large or run the other way.
Please state which outcome applies, choosing from true (active), false (inactive)

C[N+]1(C)[C@@H]2C[C@@H](OC(=O)C(O)(c3cccs3)c3cccs3)C[C@H]1[C@@H]1O[C@@H]12
false
CC[C@]1(O)C[C@H]2CN(CCC3=c4ccccc4=N[C]3[C@@](C(=O)OC)(c3cc4c(cc3OC)N(C)[C@H]3[C@@](O)(C(N)=O)[C@H](O)[C@]5(CC)C=CCN6CC[C@]43[C@@H]65)C2)C1
true

IN: Per the assay record, what outcome was assigned to CC1=NN(c2ccccc2)C(=O)C1 ?
OUT: false

IN: Please give the result for COC(=O)Nc1nc2ccc(Sc3ccccc3)cc2[nH]1 too.
OUT: true

IN: One more compound: CC(=O)Nc1nc(C)c(-c2ccc(Cl)c(S(=O)(=O)NCCO)c2)s1
OUT: true

IN: What about COc1cc2ncnc(Nc3cccc(Br)c3)c2cc1OC ?
OUT: false

IN: Likewise for C=CC[C@@H]1C=C(C)C[C@H](C)C[C@H](OC)[C@H]2O[C@@](O)(C(=O)C(=O)N3CCCC[C@H]3C(=O)O[C@H](C(C)=C[C@@H]3CC[C@H](O)[C@H](OC)C3)[C@@H](C)[C@@H](O)CC1=O)[C@@H](C)C[C@@H]2OC ?
OUT: true
